From: PubChem BioAssay (NCI)

Tested on: CCRF-CEM leukemia
Assay: NCI-60 one-dose screen, 48 h
Details: 10 µM unless noted
This is part of a sample that, as a whole, favours compounds with a hit. Of some 83,000 tested, about 20% had one in any assay. Activity calls are given as the source filed them. The calls were made as follows: active = growth percent below 10; inactive = the rest.
Classes to choose from: y = active, n = inactive

For orientation, consider the following solved cases.
COc1ccc(/C(C)=C(\c2ccc(OCCN3CCOCC3)cc2)c2ccc(OC(=O)C3CCCCC3)cc2)cc1 : n
CCOC(=O)C(=Cc1ccc(C#N)cc1)C(=O)OCC : y

Call for entry CCOC(=O)CC1CSC(c2cccc(Cl)c2)=N1 (stereo unspecified) :
n

Also COC(=O)c1nc(-c2ccc(C)cc2)oc1S(=O)(=O)c1ccc(Cl)cc1 , if possible.
y

Record: COc1ccc(/C=C2\COc3ccc(O)c(O)c3C2=O)c(OC)c1OC
y

Same question, CN1C(=O)/C(=C/c2ccc(C(=O)Nc3ncc(Cc4ccccc4Cl)s3)cc2)SC1=S this time
n
